Tested on: P. falciparum male gametocytes
method.description: P. falciparum Dual Gamete Formation Assay (PfDGFA), male readout (exflagellation)
Type: cell-based, Plasmodium falciparum NF54
conditions.used: HepG2 Tox50 versus male IC50
Method: […] The Pf DGFA was performed as described in Delves et al. 2016 [17]. […] Exflagellation was recorded by capturing 10 frames over 1 s under brightfield illumination using a x4 objective with a 1.5x zoom (effectively x6) attached to an automated Nikon Ti fluorescence microscope. […] The plates were then returned to the microscope and female gametes imaged at x6 using fluorescence microscopy. […]
observation.type: Selectivity Ratio M

CS(=O)(=O)O.FC(F)(F)COc1ccc(CNCCCCCCNCc2ccc(OCC(F)(F)F)c3ccccc23)c2ccccc12 ... 4.06
CN(CCCNCc1ccc2ccccc2c1)CCCNCc1ccc2ccccc2c1.Cl ... 8.05
O=C1Nc2ccccc2C1=NNC(=S)N1CCOCC1 ... 49.26
CCOCn1c(-c2ccccc2)cc2c3c(N)nc(N)nc3ccc21 ... 0.71

###

This section presents compounds with their documented Tox50 values.
Tested on: HepG2 cells
method.description: HepG2 cytotoxicity counter-screen
conditions.used: cytotoxic activity against HepG2 cells
observation.type: Tox50

C=CCOc1ccc2ccccc2c1CNCCCCCCNCc1c(OCC=C)ccc2ccccc12.CS(=O)(=O)O ... 3.85 µM
CN(C)CCNCc1ccc(-c2ccc3c(Nc4ccc(Cl)cc4F)ccnc3c2)o1 ... 12.91 µM
Br.c1cc(C2=NC3CCCCC3N2)ccc1OCCCOc1ccc(C2=NC3CCCCC3N2)cc1 (stereo not shown) ... 36.78 µM
CN1CCC(NCc2ccc(-c3cnc(NCc4ccccc4)nc3)cc2)CC1.O=C(O)C(F)(F)F ... 11.1 µM
CN1CCN(c2ccc(Nc3ncc(C#N)c(Nc4ccccc4C(N)=O)n3)cc2)CC1.Cl ... 3.71 µM
CCOc1cc(CNCCCCCCNCc2cc(OCC)c(OCC)c3ccccc23)c2ccccc2c1OCC.CS(=O)(=O)O ... 2.02 µM
Cc1ccc(C(C(=O)Nc2ccc(N3CCNCC3)c(Cl)c2)c2ccccc2)cc1 (stereo not shown) ... 11.32 µM
Cc1cccc2nc(-c3ccc(-c4cccc(CNCCN5CCNCC5)c4)cc3)[nH]c12.O=C(O)C(F)(F)F ... 24.28 µM
Nc1nc(N)c2cc(NC(=O)c3ccc(Cl)c(Cl)c3)ccc2n1 ... 2.38 µM
COc1ccc(CNC2CCN(C)CC2)cc1-c1ccc(S(=O)(=O)NCc2ccccc2)s1.O=C(O)C(F)(F)F ... 5.43 µM
COc1cc2nc(N3CCC(CNC(=O)c4ccc(-c5ccc(-c6noc(C)n6)cc5)cc4)CC3)nc(N)c2cc1OC ... 3.68 µM
Fc1ccc2[nH]c(-c3ccc(-c4ccc(CNCCN5CCNCC5)cc4)s3)nc2c1.O=C(O)C(F)(F)F ... 24.05 µM
CS(=O)(=O)O.FC(F)(F)COc1ccc(CCNCCCCNCCc2ccc(OCC(F)(F)F)c3ccccc23)c2ccccc12 ... 2.39 µM
CCOCn1c(-c2ccccc2)cc2c3c(N)nc(N)nc3ccc21 ... 1.17 µM
Cc1ccc(Cn2nc(Cl)c(N3CCNCC3)cc2=O)cc1NC(=O)Nc1ccc(-c2ccccc2)cc1.O=C(O)C(F)(F)F ... 3.97 µM
O=C(O)C(F)(F)F.O=c1[nH]ccc2nc(N[C@@H]3CCCNC3)nc(Nc3ccc(S(=O)(=O)N4CCOCC4)cc3)c12 ... 21.89 µM
